assay: yeast display, Sf9 membrane polyspecificity reagent, FACS + sequencing; frameworks hold sequencing errors
QUANTITY_KIND: polyreactivity (PSR sort gate)

biosequence=QVQLVESGGGLVQAGGSLRLSCAASGITFYGYAMGWYRQAPGKERELVAAISKRGGSTYYADSVKGRFTISRDNAKNTVYLQMNSLKPEDTAVYYCNARPGKSQGWRYDYWGQGTQVTVSS result="high polyreactivity"
biosequence=QVQLVESGGGLVQAGGSLRFSCAASGITFTEYAMGWYTQAPGTERELVAAITGSGTSTYYADSVKGRFTISRDNAKNTVYLHMNSLKPEDTAVYYCAARTRGTAYNYWGQGTQVTVSS result="high polyreactivity"
biosequence=QVQLVESGGGLVQAGGSLRLSCAASGSIFYAYAMGWYRQAPRKERELVAAITRSGGSTYYADSVKGRFTISRDNAKNTVYLQMNSLKPEDTAVYYCAAVSRSRRMDFWGQGTQVTVSS result="high polyreactivity"
biosequence=QVQLVESGGGLVQAGGSLRLSCAASGRIFWGYAMGWYRQAPGKERELVAAISSGGSTNYADSVKGRFTISRDNAKNTVYLQMNSLKPEDTAVYYCAKDHAYTSAPHQYASEYYYWGQGTQVTVSS result="low polyreactivity"
biosequence=QVQLVESGGGLVQAGGSLRLSCAASGRNIYSNAMGWYRQAPGKERELVAAIRWRDGSTYYADSVKGRFTISRDNAKNTVFLQMNSLKPVDTAVYYCAAVYWGEEYEYWGQGTQVTVSS result="low polyreactivity"

Using the record for QVQLVESGGGLVQAGGSLRLSCAASGSIFRYYVMGWYRHAPGKERELVAAISGGSTYYADSVKGRFTISRDNAKNTVYLQMNSLKPEDTAVYYCAARGKRRSGGENYAYGYWGQGTQVTVSS , state its measured polyreactivity (PSR sort gate).
high polyreactivity

Identify polyreactivity (PSR sort gate) associated with the sequence QVQLVESGGGLVQAGGSLRLSCAASGLIFYTYAMGWYRQAPGKERALVADINRSDGSTYYADSVKGRFTISRDNAKNTVYLQMNILKPEDTAVYYCAVVGPYYTRFGGRYYYWGQGTQVTVSS
low polyreactivity

Please report the measured polyreactivity (PSR sort gate) for QVQLVESGGGLVQAGGSLRLSCAASGRIFYYYAMGWSRPAPGTERELVASITFSGGRTFYADSVKGRFTISRDNAKKTVYLQMNSLKPEDTAVYYCAAVRWGRRSGGLVAEYDYWGQGTQVNVSS
high polyreactivity

Fill in reported polyreactivity (PSR sort gate) for this entry: QVQLVESGGGLVQAGGSLRLSCAASGRTFGLNGMGWYRQAPGKEREFVATITGSGTSTYYADSVKGRFTISRDNAKNTVYLQMNSLKPEDTAVYYCAALSGLWGYHYYHEYYYWGQGTQVTVSS
low polyreactivity

Note down polyreactivity (PSR sort gate) recorded for QVQLVESGGGLVQAGGSLRLSCAASGLIFVWYAMGWYRQAPGKEREVVAAITSRGGSTYYADSVKGRFTISRDNAKNTVYLQMNSLKPEDTAVYYCAKYVRYDLGDYWGQGTQVTVSS
low polyreactivity

Answer with reported polyreactivity (PSR sort gate) of QVQLVESGGGLVQAGGSLRLSCAASGSTFGVNAMGWYRQAPGKERELVAAIDADGGITYYADSVKGRFTISRDNAKNTVYLQMNILKPEDTAVYYCAARVAVYFSYGSPYWYEYDYWGQGTQVTVSS
low polyreactivity

* * *

assay: yeast display, Sf9 membrane polyspecificity reagent, FACS + sequencing; frameworks hold sequencing errors
QUANTITY_KIND: polyreactivity (PSR sort gate)

Reference set (5 entries):
biosequence=QVQLVESGGGLVQAGGSLRLSCAASGRTLRYNAMGWDRQAPGKERELVAAISTRGTNTYYADSVKGRFTISRDNAKNTVYLQMNSLKPEDTAVYYCAAKKGGYPYSVYSGTRHNYWGQGTQVTVSS result="high polyreactivity"
biosequence=QVQLVESGGGLVQAGGSLRLSCAASGRIFNYNVMGWYRQAPGKERELVASISYSSTRTYYADSVKGRFTISRDTAKNTVYLQMNSLKPEDTAVYYCNADYYFSSYRSTFDYWGQGTQVTVSS result="low polyreactivity"
biosequence=QVQLVESGGGLVQAGGSLRLSCAASGSTIYVYAMGWYRHPPGKERELVAAISTAGGRTSYADSVKGRFTISRDNAQNTVYLQMNSLKPEDTAVYYCAARSTLYRSIRYDYWGQGTQVTVSS result="high polyreactivity"
biosequence=QVQLVESVGGLVQAGGSLRLSCAASGYTLGDYAMGWYRQAPGKERELVAVITRNGGRTYYADSVKGRFTISRDNAKNTVYLQMNSLKPEDTAVYYCNRDTSIRHYNYWGQGTQVTVSS result="high polyreactivity"
biosequence=QVQHVESGGGLVQAGGSLRLSCAASGRTFGFNAMGWYRQATGKERELVAAITYSGGRTYYADSVKGRFTISRDNAKNTVYLHMNSLKPEDTAVYFCAALTRRVKKYDYLGQGTQVTVSS result="high polyreactivity"

API: the following record is the query input.
Annotate the sequence QFQIEESGGGLVQAGGSLRLSCAASGNTFYWNAMGWYRQAPGKDRELVAAISTTGVSTYYADSVKGRFTISRDNAKITVYLQMNSLKPEDTAVYYCAAEIIGYHTIYDYWGQGTQVTVSS with its measured polyreactivity (PSR sort gate).
low polyreactivity

* * *

assay: yeast display, Sf9 membrane polyspecificity reagent, FACS + sequencing; frameworks hold sequencing errors
QUANTITY_KIND: polyreactivity (PSR sort gate)

As a guide, the following entries are already answered.
biosequence=QVQLVESGGGLVQAGGSLRLSCAASGSTFAKYAMGWYRQAPGKERELVASIRLSGGSTYYADSVKGRFTISRDNAKNTVYLQMNSLNPEDTAVYYCNKQFATFYYGFDYYYWGQGTQVTVSS result="low polyreactivity"
biosequence=QVQLVESGGGLVQAGGSLRLSCAASGSIFYSNVMGWYRQAPGKERELVASITNGGGTYYADSVKGRFTISRDNAKNTVYLQMNSLKPEDTAVYYCAADPDRTAYDYWGQGTQVTVSS result="low polyreactivity"
biosequence=QVQLVESGGGLVQAGGSLRLSCAASGNTFYSYAMGWYRQAPGKERELVAAITWGGRTKYADSVKGRFTISRDNAKNTVYLQMNSLKPEDTAVDYCAARLYHGKTKYDYWGQGTQVTVSS result="high polyreactivity"
biosequence=QVQLVESGGGLVQAGGSLRLSCAASGRTCGRYAMGWYRQAPGKERELVADISWNGGRTYYADSVKGRFTISRDNAKNTVYLKMNSLKPEDSAVYYCAKRFSPRYYYWGQGTQVTVSS result="high polyreactivity"

Query polyreactivity (PSR sort gate) for QVQLVESGGGLVQAGGSLRLSCAASGRIFAYKAMGWYRQEPGKERELVAAISWSGSSTYYADSVKGRFTISRDNAKNTVYLQMNSLKPEDTAVYYCAATPWYYYSTSYAYYFWGQGTQVTVSS
high polyreactivity

* * *

test: yeast display, Sf9 membrane polyspecificity reagent, FACS + sequencing; frameworks hold sequencing errors
QUANTITY_KIND: polyreactivity (PSR sort gate)

biosequence=QVQLQESGGGLVQAGGSLRLSCAASGTISPLPAMAWYRQAPGKEREFVAGIDTGAITNYADSVKGRFTISRANAKNTVYLQMNSLIPEDTAVYYCAVFPAAYDYYERYYTYWGQGTQVTVSS quantity_kind="polyreactivity (PSR sort gate)" result="low polyreactivity"
biosequence=QVQLVESGGGLVQAGGSLRLSCAASGFILDRYAMGWYRQAPGKERELVASITSGGSTNYADSVKGRFTISRDNAKNTVYLQMNSLKPEDTAVYYCAAYPWRYWNHEYNYWGQGTQVTVSS quantity_kind="polyreactivity (PSR sort gate)" result="high polyreactivity"
biosequence=QVQLVESGGGLVQAGGSLRLSCAASGSTFKYYAMGWYRQAPGKERELVAAISASGGTTYYADSVKGRFTISRDNAKNTVYVQMNSLKPEDTAVYDCAARYLTTFSRTDMEYWGQGTQVTVSS quantity_kind="polyreactivity (PSR sort gate)" result="low polyreactivity"
biosequence=QVQLVESGGGLVQAGGSLRLSCAASGSIFGTYAMGWYRQAPGKERELVAAISFIGGDTYYADSVKGRFTISRDNAKNTVYLQMNSLKPEDTAVYYCAADRELSGYGGEYWGQGTQVTVSS quantity_kind="polyreactivity (PSR sort gate)" result="low polyreactivity"
biosequence=QVQLVESGGGLVQAGGSLRLSCAASGSIFSSNAMGWYRQAPGKERELVASIDGGPTTYADSVKGRFTISRDNAKNTVYLQMNSLKPEDTAVYFCKAVYAFNGYDYWGQGTQVTVSS quantity_kind="polyreactivity (PSR sort gate)" result="low polyreactivity"
biosequence=QVQLVESGGGLVQAGGSLRLSCAASGLTFSLYAMGWYRQAPGKERELVAAISSSGSTYYADSVKGRFTISRDNAKNTVYLQMNILKPEDTAVYYFAADAPWWIDPIAGNYWGQGTQVTVSS quantity_kind="polyreactivity (PSR sort gate)" result="high polyreactivity"
biosequence=QVQLVESGGGLVQAGGSLRLSCAASGRTFWYYEMGWYRQAPGKERELVATINNVGSTHYADSVKGRFTISRDNAKNTVYLQMNSLKPEDTAVYYCGRASYGKMDYWGQGTQVTVSS quantity_kind="polyreactivity (PSR sort gate)" result="high polyreactivity"
biosequence=QDQLVESGGGLGQAGGSLRLSCAASGSNFRPNAMGWYRQAPGKEMELVASITRNGGSTYYADSVKGRFTISRDNAKNTVYLQMNSLKPEDTAVYYCNAGYYYWGQGTQVTLSS quantity_kind="polyreactivity (PSR sort gate)" result="high polyreactivity"
biosequence=QVQLVESGGGLVQAGGSLRLSCAASGRTFGHNAMGWYRQAPGKEREFVAAITYSGVRTFYADSVKGRFTISRDNAKNTVYLQMNSLKPEDTSVYYCATDWRRDYDYWGQGTQVTVSS quantity_kind="polyreactivity (PSR sort gate)" result="low polyreactivity"
biosequence=QVQLVESGGGLVQAGGSLRLSCAASGRIFSRYAMGWYRQAPGKERELDAAINKSGGSTYYADSVKGRFTISRDNAKHTVYLQMNSLKPEDTAVYYCAADGRLRGYGYWGQGTQVTVSS quantity_kind="polyreactivity (PSR sort gate)" result="high polyreactivity"

Using known records, supply polyreactivity (PSR sort gate) for QVQLVESGGCLVQAGGSLRLSCAASGSTLGYYAMGWYRQAPGKERELVASIRWDTASTYYADSVKGRFTISRDNAKNTVYLQMNSLKPEDTAVYYCNAGRPRFYRSRWYYYGYGYWGQGTQVTVSS
high polyreactivity
